These data points were gathered from ChEMBL document CHEMBL1141726.

protocol_summary: Binding affinity to blood-brain barrier choline transporter in rat brain assessed as inhibition of [3H]choline uptake
Assay type: tissue-based
Each entry below carries its reported pKi.
Formally, pKi is defined as -log10 of the concentration c, with c in mol/L.

Sample records with pKi:
> print(dat)
                                chem.smiles  measurement
1                            C[N+](C)(C)CCO         4.39
2  C1#Cc2ccc[n+](c2)CCCC[n+]2cccc(c2)C#CCCCCCC1         4.82
3  c1ccc2c[n+](CCCCCC[n+]3ccc4ccccc4c3)ccc2c1         4.54
4  c1ccc2c[n+](CCCCCCCCCCCC[n+]3ccc4ccccc4c3)ccc2c1         4.66
5  C1#Cc2ccc[n+](c2)CCCCCCC[n+]2cccc(c2)C#CCCCCCC1         5.85
6  C1#Cc2ccc[n+](c2)CCCCCCCCC[n+]2cccc(c2)C#CCCCCCC1         4.47
7        CCCCCCCC[n+]1cccc([C@@H]2CCCN2C)c1         4.31
8  c1ccc2c[n+](CCCCCCCCCC[n+]3ccc4ccccc4c3)ccc2c1         5.02
9  C1#Cc2ccc[n+](c2)CCCCCCCC[n+]2cccc(c2)C#CCCCCCC1         6.10

Prompt: Quick one: pKi of Cc1ccc[n+](CCCCCCCCCCCC[n+]2cccc(C)c2)c1 ?
Response: 4.44
